target.system: 8A6 mAb
test.details: competitive inhibition ELISA: peptide blocks 8A6 mAb binding to sonicated C. pneumoniae
Design: species or system murine
settings: competitive inhibition ELISA; binding of 8A6 mAb to sonicated C. pneumoniae fixed to solid phase
No end group written: not given here.
Quick reference for IC50 (50% Inhibiting Concentration) among some sequences
# number only, unit µg/mL dropped from output

query: // query IC50 (50% Inhibiting Concentration) value for entry PNEPDDLALMRIIRI [CP-8A6-B1, PNEPDDLALMRIIRI]
result: 2.93

###

System: 8A6 mAb
test.details: competitive inhibition ELISA: peptide blocks 8A6 mAb binding to sonicated C. pneumoniae
Set-up: species or system murine
settings: competitive inhibition ELISA; binding of 8A6 mAb to sonicated C. pneumoniae fixed to solid phase
No end group written: not given here.
Let's look at some sequences and their measured percent inhibition.
# unit: % | format: bare number

Example cases with answers are listed next.
query: # query: percent inhibition of entry PNEPDDLALMRIIRI [CP-8A6-B1, PNEPDDLALMRIIRI]
result: 95.44

query: # percent inhibition lookup, item ESNPVDGAHLSL [CP-8A6-B10A, ESNPVDGAHLSL]
result: 57.4

query: What measured percent inhibition goes with RRLGRQTYDNES [CP-8A6-A1, RRLGRQTYDNES] ?
result: 84.5

query: Looking for the measured percent inhibition of HDEGRQIIQFEE [CP-8A6-A2, HDEGRQIIQFEE] , can you help?
result: 83.5

query: Param item = LRNCEQDFFTLN [CP-8A6-A3, LRNCEQDFFTLN] ; retrieve measured percent inhibition.
result: 95.1

Moving on to another sequence below.
query: Requested read-out: percent inhibition. Entry: AFAQAPTHQLSL [CP-8A6-B3, AFAQAPTHQLSL]
result: 67.8

###

This section presents sequences with their documented IC50 (50% Inhibiting Concentration) values.
target.system: 8A6 mAb
test.details: competitive inhibition ELISA: peptide blocks 8A6 mAb binding to sonicated C. pneumoniae
Parameters: species or system murine
settings: competitive inhibition ELISA; binding of 8A6 mAb to sonicated C. pneumoniae fixed to solid phase
No end group written: not given here.
Only the number, expressed in µg/mL, is required.

These solved cases illustrate the format of a correct answer.
query: Returns the measured IC50 (50% Inhibiting Concentration) for the input sequence. Input: LRNCEQDFFTLN [CP-8A6-A3, LRNCEQDFFTLN]
result: 18.54

query: Look at this sequence and give its reported IC50 (50% Inhibiting Concentration). ESNPVDGAHLSL [CP-8A6-B10A, ESNPVDGAHLSL]
result: 18.90

query: GET /values?readout=IC50 (50% Inhibiting Concentration)&item= HDEGRQIIQFEE [CP-8A6-A2, HDEGRQIIQFEE]
result: 18.29

query: Value lookup for IC50 (50% Inhibiting Concentration); key = AFAQAPTHQLSL [CP-8A6-B3, AFAQAPTHQLSL]
result: 6.46

Next up:
query: Entry under review: RRLGRQTYDNES [CP-8A6-A1, RRLGRQTYDNES] . Reported IC50 (50% Inhibiting Concentration)?
result: 4.82
